test system: Tyrosine-protein phosphatase non-receptor type 1 (Homo sapiens) (UniProt P18031)
Sequence (P18031 whole entry): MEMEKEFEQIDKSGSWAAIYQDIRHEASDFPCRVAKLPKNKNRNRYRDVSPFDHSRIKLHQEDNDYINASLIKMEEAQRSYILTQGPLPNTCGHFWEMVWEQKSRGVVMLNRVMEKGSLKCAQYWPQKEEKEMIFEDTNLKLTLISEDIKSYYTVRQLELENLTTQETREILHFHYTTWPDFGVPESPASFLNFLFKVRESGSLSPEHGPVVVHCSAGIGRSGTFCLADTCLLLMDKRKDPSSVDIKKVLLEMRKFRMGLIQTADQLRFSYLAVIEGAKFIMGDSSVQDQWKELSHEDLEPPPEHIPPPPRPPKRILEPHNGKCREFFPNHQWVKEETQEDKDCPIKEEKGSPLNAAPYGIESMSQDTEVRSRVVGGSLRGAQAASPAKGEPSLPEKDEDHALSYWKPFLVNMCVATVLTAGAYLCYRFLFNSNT
protocol details: Inhibition of recombinant human PTP1B at 10 uM by malachite green assay relative to control
Classify by measured inhibition: True if it is equal to or exceeds 40%, False if it is smaller.

compound_structure=Cc1ccc(C(=O)O)cc1NC(=O)CSc1nnc(-c2ccc(Cl)cc2Cl)o1 group=True
compound_structure=Cc1ccc(C(=O)O)cc1NC(=O)CSc1nnc(-c2ccc(O)cc2)o1 group=True
compound_structure=Cc1ccc(C(=O)O)cc1NC(=O)CSc1nc2cc([N+](=O)[O-])ccc2[nH]1 group=False
compound_structure=Cc1ccc(C(=O)O)cc1NC(=O)CSc1nc2ccccc2s1 group=True
compound_structure=COc1ccc2[nH]c(SCC(=O)Nc3cc(C(=O)O)ccc3C)nc2c1 group=True
compound_structure=Cc1ccc(C(=O)O)cc1NC(=O)CSc1nc2ccccc2o1 group=False
compound_structure=Cc1ccc(C(=O)O)cc1NC(=O)CSc1nnc(-c2ccccc2O)o1 group=False
compound_structure=Cc1ccc(C(=O)O)cc1NC(=O)CSc1nnc(-c2cccc(Cl)c2Cl)o1 group=False
compound_structure=Cc1ccc(C(=O)O)cc1NC(=O)CSc1nnc(-c2ccccc2Cl)o1 group=False
compound_structure=Cc1ccc(-c2nnc(SCC(=O)Nc3cc(C(=O)O)ccc3C)o2)cc1 group=True
compound_structure=COc1cc(-c2nnc(SCC(=O)Nc3cc(C(=O)O)ccc3C)o2)cc(OC)c1OC group=True
compound_structure=Cc1ccc(C(=O)O)cc1NC(=O)CSc1nc2ccccc2[nH]1 group=True
